Source of measurements: ChEMBL document CHEMBL5729071

- system.tested: Bromodomain-containing protein 4 (Homo sapiens)
- test.name: Assays were performed as described previously with minor modifications from the manufacturer's protocol (PerkinElmer, USA). All reagents were diluted in 50 mM HEPES, 100 mM NaCl, 0.1% BSA, pH 7.4 supplemented with 0.05% CHAPS and allowed to equilibrate to room temperature prior to addition to plates. […] Plates were sealed and incubated for a further 30 minutes, before the addition of 4 μl of streptavidin-coated donor beads (25 μg/ml) and 4 μl nickel chelate acceptor beads (25 μg/ml) under low light conditions. Plates were foil-sealed to protect from light, incubated at room temperature for 60 minutes and read on a PHERAstar FS plate reader (BMG Labtech, Germany) using an AlphaScreen 680 excitation/570 emission filter set. IC50 values were calculated in Prism 5 (GraphPad Software, USA) after normalization against corresponding DMSO controls and are given as the final concentration of compound in the 20 μl reaction volume.
pIC50: −log10 of the molar value.
attribute.measured: pIC50

1) Cc1sc2c(c1C)C(c1ccc(C#N)cc1)=N[C@@H](CC(=O)OC(C)(C)C)c1nnc(C)n1-2	7.01
